- Test details: qHTS assay to identify small molecule antagonists of the estrogen related receptor (ERR) signaling pathway (AID 1224819; also: nearly all actives have a fitted effect of over 50% in size)
- Condition label: ERR reporter cell line, luciferase inhibition; series mostly up to 46.1 µM
Results filed as inconclusive are left out. Calls of active or inactive are those of the source. Calls follow the shape of the dose curve; as a rule, active = well fitted inhibition curve with a large enough effect in the repeat runs; inconclusive = weak or mixed curves; inactive = no such curve, though single readings can be large or run the other way.
Possible outcomes: active, inactive

compound=c1ccc2c(c1)[I+]c1ccccc1-2 group=active
compound=C[C@@H]1O[C@H](C[N+](C)(C)C)C[C@H]1O group=inactive
compound="CC(N)C(=O)OC(C)(C)Cc1ccc(Cl)cc1 (stereo unspecified)" group=inactive
compound=CCN1C[C@@]2(COC)C3[C@@H](OC)C4[C@H]1C3([C@@H]1C[C@@]3(O)[C@H](OC(=O)c5ccccc5)[C@@H]1[C@]4(OC(C)=O)[C@@H](O)[C@@H]3OC)[C@H](OC)C[C@H]2O group=inactive
compound="OC1CCCCC1N1CCC(c2ccccc2)CC1 (stereo unspecified)" group=inactive
compound="C=CCN1CC[C@]23CCCCC2[C@H]1Cc1ccc(O)cc13 (stereo partly specified)" group=inactive
compound=N[C@@]1(C(=O)O)CC[C@@H](C(=O)O)C1 group=inactive
compound=C[C@H](N)Cc1cccc(C(F)(F)F)c1 group=inactive
compound=CCN(CC)c1ncnc2c1ncn2[C@@H]1O[C@H](COP(=O)(O)OP(=O)(O)C(Br)(Br)P(=O)(O)O)[C@@H](O)[C@H]1O group=inactive
compound=C[C@]12N[C@H](Cc3ccccc31)c1ccccc12 group=inactive
compound=NCCc1c[nH]c2ccccc12 group=inactive
compound=C[C@H]1C2Cc3ccc(O)cc3[C@@]1(C)CCN2CC1CC1 group=inactive
compound=CCCN1CCC[C@H](c2cccc(O)c2)C1 group=inactive
compound=CN1CC[C@@]2(C)c3cc(OC(=O)Nc4ccccc4)ccc3N(C)[C@@H]12 group=inactive
compound=NC(=O)c1cc(N2CC2)c([N+](=O)[O-])cc1[N+](=O)[O-] group=inactive
compound="Nc1ncnc2c1ncn2[C@@H]1O[C@H](COP(=O)(O)CP(=O)(O)OP(=O)(O)O)C(O)[C@H]1O (stereo partly specified)" group=inactive
compound="CN(C(=O)Cc1ccc(Cl)c(Cl)c1)C(CN1CCCC1)c1cccc(OCC(=O)O)c1 (stereo unspecified)" group=inactive
compound=CCCn1c(=O)c2[nH]c(C3CCCC3)nc2n(CCCOC(=O)c2ccc(S(=O)(=O)F)cc2)c1=O group=inactive
compound=O=C1/C(=C/c2ccccc2)C[C@@]2(O)[C@H]3Cc4ccc(O)c5c4[C@@]2(CCN3CC2CC2)[C@H]1O5 group=active
compound=CCCN1CCC[C@@H](c2cccc(O)c2)C1 group=inactive
compound=COc1ccc2c(c[n+](C)c3c4cc5c(cc4ccc23)OCO5)c1OC group=active
